MEASURED_TARGET: T1, Human OX40 expressed on transfected Jurkat or CHO cells (human, UniProt P43489 29-277)
T1 construct: also called human OX40/Jurkat; human OX40/CHO
T1 sequence: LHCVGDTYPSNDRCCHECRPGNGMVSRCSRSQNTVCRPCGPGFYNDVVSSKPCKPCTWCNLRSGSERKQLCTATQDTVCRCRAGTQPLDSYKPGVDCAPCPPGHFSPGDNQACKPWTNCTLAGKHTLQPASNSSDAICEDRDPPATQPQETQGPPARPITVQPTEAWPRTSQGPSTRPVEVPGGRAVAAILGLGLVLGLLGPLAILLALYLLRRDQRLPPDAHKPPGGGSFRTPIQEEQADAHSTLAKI
ASSAY: flow cytometry on human OX40-transfected Jurkat cells, Alexa Fluor488 anti-human IgG Fc, Geo MFI
Method: FIGS. 2A-2C depict whole cell binding of humanized anti-OX40 antibodies to human or cynomolgus OX40 assessed by flow cytometry. […] The fluorescence intensity was measured by flow cytometry. Bivalent antibodies of these 15 clones were made by fusing VHH to human IgG1 Fc, expressed in ExpiCHO cells, and purified by Protein A affinity column. […] Binding affinity was calculated using GraphPad Prism three parameter logistic equation.

[
  {
    "BINDER": "1C8 VHH-Fc bivalent antibody (antibody, human IgG1, V domains shown, Humanized VHH fused to human IgG1 Fc) VH: EVQLVESGGGLVQPGGSLRLSCAASGPLGLPSIAWFRQAPGKGLEFVSGIAWEGGDTYYADSVKGRFTISRDNSKNTLYLQMNSLRAEDTAVYYCAADTVVHYMGRHDIRDYEEYDYWGQGTLVTVSS",
    "binding result": "binds"
  },
  {
    "BINDER": "1B7 VHH-Fc bivalent antibody (antibody, human IgG1, V domains shown, Humanized VHH fused to human IgG1 Fc) VH: EVQLVESGGGLVQPGGSLRLSCAASGPLGEPSIAWFRQAPGKGLEFVSGIAWSSGDTYYADSVKGRFTISRDNSKNTLYLQMNSLRAEDTAVYYCAADTVVHYMGRHDIRDREEYDYWGQGTLVTVSS",
    "binding result": "binds"
  },
  {
    "BINDER": "4F5 VHH-Fc bivalent antibody (antibody, human IgG1, V domains shown, Humanized VHH fused to human IgG1 Fc) VH: EVQLVESGGGLVQPGGSLRLSCAASGPLGLPSIAWFRQAPGKGLEFVSGIVWSGGDTYYADSVKGRFTISRDNSKNTLYLQMNSLRAEDTAVYYCAADTKVHYMGRFDIRDLEEYDYWGQGTLVTVSS",
    "binding result": "binds"
  }
]
